- Experimental Target: HCV Core 134-171-TT peptide (ALRZ-9 peptide) (HCV-1)
- Protocol Summary: SPR, captured mAb;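 further: Anti-HCV Core mAbs from hybridoma supernatants held on a rabbit anti-mouse IgG CM5 surface, peptide flowed over 3 min then 4 min dissociation, duplicate concentrations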
Entries and their Kd values follow.
// units = nM; emit number, no label

## Task Please list Kd recorded for the binder HCV 208A-638 (antibody, V domains shown) VH: QGQLQQPGAEFVKPGASLKLSCRASGYTFTSYWIHWVKQRPGQGLEWIGEVDPSDSYINQNEKFRGKATLTVDKSSSTAYMQLGSLTSEDSAVYYCARHYYGVLDSWGQGTALTVSS VL: QIVLTQSPTIMSASLGERVTMTCTASSSVSSSYLHWFQQKPGSSPKLWIYSTSNLASGVPPRFSGSGSGTSYSLSISSVEAEDVATYYCLQFHRSPWTFGGGAKLEIKR
## Result 0.2

## Task Please list Kd recorded for the binder HCV 208B-174 (antibody, V domains shown) VH: EVKLEESGGGLVQPGGSMKLSCVASGFSFSSYWMSWVRQSPEKGLDWVAEIRLRSDNYATHYAESVKGRFTISRDDSISRLYLQMNTLRAEDTGIYYCTWMTYWGQGTLVTVSA VL: QNVLTQSPAIMSASPGEKVTMSCSASSSVTYMFWYQLKPESSPRLLIYDTSNLASGVPVRFSGSGSGTSYSLTISRMEAEDAATYYCQEWSSYPLTFGAGTKLDLKR
## Result 0.25

## Task Please list Kd recorded for the binder HCV 208B-395 (antibody, V domains shown) VH: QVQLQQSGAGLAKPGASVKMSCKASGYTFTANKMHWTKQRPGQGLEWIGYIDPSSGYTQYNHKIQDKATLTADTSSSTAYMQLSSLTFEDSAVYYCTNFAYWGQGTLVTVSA VL: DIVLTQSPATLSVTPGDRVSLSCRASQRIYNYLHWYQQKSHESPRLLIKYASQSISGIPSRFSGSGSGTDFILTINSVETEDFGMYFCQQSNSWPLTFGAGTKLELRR
## Result 0.36

## Task Please list Kd recorded for the binder HCV 208A-222 (antibody, V domains shown) VH: EVQLQQSGPELEKPGASVRISCKTSGYTFTEYAMHWVKQSHGKSLEWIGGINPNNGNAIYNQIFKDKATLTVDRSSSTAYMGLRSLTFGDSGVYFCVRRQLDYFDYWGQGASLTVSS VL: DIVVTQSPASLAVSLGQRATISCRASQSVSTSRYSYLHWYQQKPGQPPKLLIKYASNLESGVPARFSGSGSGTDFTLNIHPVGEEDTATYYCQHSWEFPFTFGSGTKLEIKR
## Result 0.31
